# maps each entry to its IC50
# measured.on: Beta-lactamase (Escherichia coli K-12, UniProt P00811)
# Sequence (P00811 whole entry): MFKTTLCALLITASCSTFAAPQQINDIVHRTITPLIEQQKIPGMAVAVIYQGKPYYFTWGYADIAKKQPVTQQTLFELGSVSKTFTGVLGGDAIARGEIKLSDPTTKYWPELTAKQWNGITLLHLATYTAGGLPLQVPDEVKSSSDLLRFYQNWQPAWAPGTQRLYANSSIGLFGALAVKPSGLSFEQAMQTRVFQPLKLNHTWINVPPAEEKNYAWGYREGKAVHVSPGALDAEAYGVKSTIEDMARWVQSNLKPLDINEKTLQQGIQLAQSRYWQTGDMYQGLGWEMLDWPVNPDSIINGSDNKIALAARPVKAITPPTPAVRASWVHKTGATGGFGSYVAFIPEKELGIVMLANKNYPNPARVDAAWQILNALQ
# procedure.summary: Inhibition of Beta-Lactamase Enzymes: A buffer consisting of 0.1 M sodium phosphate (pH 7.0), 10 mM NaHCO3, and 0.005% Triton X-100 was used for all enzymes. The chromogenic substrate nitrocefin (SynGene, Bangalore, India) was used at 100 μM. Enzyme activity was monitored by the 490 nm absorbance increase upon nitrocefin hydrolysis. Assays were performed in clear polystyrene 384-well plates (Greiner Bio-One, Monroe, N.C.). Absorbance was measured for 1 hour at 30-s intervals using a Spectramax absorbance plate reader (Molecular Devices, Sunnyvale, Calif.). Measurement of beta-lactamase inhibition by INHIBITOR employed serial 3-fold dilutions of the inhibitor in assay buffer, ranging from 100 μM to 62.7 pM. A background absorbance progress curve for a control lacking enzyme and inhibitor was subtracted from each progress curve.
Field: numeric (nM). Do not append units.

Answered examples (3):
CC1=C[C@@H](C(N)=O)N2C[C@@H]1N(OC(F)(F)C(=O)O)C2=O ... 36
CC1=C[C@@H]2CN(C(=O)N2O[C@@H](F)C(=O)O)[C@@H]1C(=O)NCO ... 17
CC1=C[C@@H]2CN(C(=O)N2O[C@@H](F)C(=O)O)[C@@H]1C(=O)NCCC(N)=O ... 4.4

[Q] Can you share its IC50? I mean this molecule: NC(=O)[C@@H]1CC[C@@H]2CN1C(=O)N2O[C@H](F)C(=O)O
[A] 2000

[Q] Check CC1=C[C@@H]2CN(C(=O)N2O[C@H](F)C(=O)O)[C@@H]1C(N)=O too.
[A] 11

* * *

# measured.on: Beta-lactamase (Escherichia coli K-12)
# procedure.summary: Inhibition of Beta-Lactamase Enzymes: A buffer consisting of 0.1 M sodium phosphate (pH 7.0), 10 mM NaHCO3, and 0.005% Triton X-100 was used for all enzymes. The chromogenic substrate nitrocefin (SynGene, Bangalore, India) was used at 100 μM. Enzyme activity was monitored by the 490 nm absorbance increase upon nitrocefin hydrolysis. Assays were performed in clear polystyrene 384-well plates (Greiner Bio-One, Monroe, N.C.). Absorbance was measured for 1 hour at 30-s intervals using a Spectramax absorbance plate reader (Molecular Devices, Sunnyvale, Calif.). Measurement of beta-lactamase inhibition by INHIBITOR employed serial 3-fold dilutions of the inhibitor in assay buffer, ranging from 100 μM to 62.7 pM. A background absorbance progress curve for a control lacking enzyme and inhibitor was subtracted from each progress curve.
measurement.kind: IC50 (nM)
Field: numeric (nM). Do not append units.

CC(=O)NNC(=O)[C@@H]1C(C)=C[C@@H]2CN1C(=O)N2OC(F)C(=O)O (stereo not given in full) ... 8.3
CC(=O)NCNC(=O)[C@@H]1C(C)=C[C@@H]2CN1C(=O)N2O[C@@H](F)C(=O)O ... 3.1
CC1=C[C@@H]2CN(C(=O)N2O[C@@H](F)C(=O)O)[C@@H]1C(=O)NOC[C@@H]1CCCN1 ... 410

[Q] Can you share its IC50? I mean this compound: CC1=C[C@@H]2CN(C(=O)N2O[C@@H](F)C(=O)O)[C@@H]1C(=O)NCCNS(N)(=O)=O
[A] 14

[Q] Check CC1=C[C@@H]2CN(C(=O)N2O[C@@H](F)C(=O)O)[C@@H]1C(=O)NCCNS(C)(=O)=O too.
[A] 7.3
